Documented LD50 across a set of molecules
Assay: in vivo
Conditions: mouse, in vivo, iv, tail of mice
Number in mg/kg, nothing else.

Some solved entries appear below for comparison.
1) COc1ccc(CN2CCN(C(=O)[C@H](CC(C)C)NC(=O)C3OC3C(=O)OCC(C)C)CC2)c(OC)c1OC (stereo partly shown) [Compound 9] : 440
2) CCOC(=O)[C@H]1O[C@@H]1C(=O)N[C@@H](CC(C)C)C(=O)N1CCN(Cc2ccc(OC)c(OC)c2OC)CC1 [Compound 12] : 345
3) CCOC(=O)[C@@H]1O[C@H]1C(=O)N[C@@H](CC(C)C)C(=O)N1CCN(Cc2ccc(OC)c(OC)c2OC)CC1 [Compound 11] : 374

As a next step, examine the molecule that follows.
Q) What value of LD50 has been reported for the following molecule? CC(C)C[C@H](NC(=O)C1OC1C(=O)O)C(=O)N1CCN(C(c2ccccc2)c2ccccc2)CC1 (stereo partly shown) [Compound 1]
A) 174

###

// MLD (in column LD50 mice) lookup, one value per entry
System: mice
Assay: in vivo
Details: i.v., tail of mice

The cases that follow already have their MLD (in column LD50 mice) on record.
1. CC(C)C[C@H](NC(=O)[C@H]1O[C@@H]1C(=O)[O-])C(=O)N1CCN(c2ncccn2)CC1.[Na+] : > 1125 mg/kg
2. CCN1CCN(C(=O)[C@H](CC(C)C)NC(=O)[C@@H]2O[C@H]2C(=O)[O-])CC1.[Na+] : > 1125 mg/kg
3. CC(C)C[C@H](NC(=O)[C@@H]1O[C@H]1C(=O)[O-])C(=O)N1CCN(c2ccccn2)CC1.[Na+] : > 1125 mg/kg

// switching to the query compound
Q) What does the data say about its MLD (in column LD50 mice)? Entry: `CC(C)C[C@H](NC(=O)[C@@H]1O[C@H]1C(=O)[O-])C(=O)N1CCN(CC=Cc2ccccc2)CC1.[Na+]`
A) 1000 to 1125 mg/kg
